Origin of values: ChEMBL document CHEMBL1287771

- Test system: Streptococcus pyogenes
- method: Antibacterial activity against efflux-resistant Streptococcus pyogenes B0545 by agar microdilution method
- Format: functional
reported metric: log10 of MIC (log10 of the value in µg/mL)
Units before log transform: µg/mL; reported quantity: MIC; transform: log10.

{"columns": ["compound", "log10 of MIC"],
 "data": [
  ["CC[C@H]1OC(=O)[C@H](C)[C@@H](O[C@@H]2C[C@@](C)(OC)[C@@H](O)[C@H](C)O2)[C@H](C)[C@@H](O[C@@H]2O[C@H](C)C[C@H](N(C)C)[C@H]2O)[C@](C)(OC/C=C/N[C@H](C)Cc2ccc([N+](=O)[O-])cc2)C[C@@H](C)NC(=O)[C@H](C)[C@H](O)[C@@]1(C)O", 1.51],
  ["CC[C@H]1OC(=O)[C@H](C)C(=O)[C@H](C)[C@@H](O[C@@H]2O[C@H](C)C[C@H](N(C)C)[C@H]2O)[C@](C)(OC/C=C/c2cnc3ccccc3c2)C[C@@H](C)NC(=O)[C@H](C)[C@H](O)[C@@]1(C)O", 0.00],
  ["CC[C@H]1OC(=O)[C@H](C)C(=O)[C@H](C)[C@@H](O[C@@H]2O[C@H](C)C[C@H](N(C)C)[C@H]2O)[C@](C)(OCC(O)CNCCNc2ccc3c(c2F)c(=O)c(C(=O)O)cn3C2CC2)C[C@@H](C)NC(=O)[C@H](C)[C@H](O)[C@@]1(C)O (stereo not given in full)", 1.20],
  ["CC[C@H]1OC(=O)[C@H](C)C(=O)[C@H](C)[C@@H](O[C@@H]2O[C@H](C)C[C@H](N(C)C)[C@H]2O)[C@](C)(OCC(O)CN2CCN(c3ccc4c(c3)c(=O)c(C(=O)O)cn4C3CC3)CC2)C[C@@H](C)NC(=O)[C@H](C)[C@H](O)[C@@]1(C)O (stereo not given in full)", 0.30],
  ["CC[C@H]1OC(=O)[C@H](C)C(=O)[C@H](C)[C@@H](O[C@@H]2O[C@H](C)C[C@H](N(C)C)[C@H]2O)[C@](C)(OCC(O)CN(C)CCc2ccc([N+](=O)[O-])cc2)C[C@@H](C)NC(=O)[C@H](C)[C@H](O)[C@@]1(C)O (stereo not given in full)", -0.60],
  ["CC[C@H]1OC(=O)[C@H](C)C(=O)[C@H](C)[C@@H](O[C@@H]2O[C@H](C)C[C@H](N(C)C)[C@H]2O)[C@](C)(OC/C=C/c2cccc3ccccc23)C[C@@H](C)NC(=O)[C@H](C)[C@H](O)[C@@]1(C)O", 0.30],
  ["CC[C@H]1OC(=O)[C@H](C)C(=O)[C@H](C)[C@@H](O[C@@H]2O[C@H](C)C[C@H](N(C)C)[C@H]2O)[C@](C)(OC/C=C/c2ccnc3ccccc23)C[C@@H](C)NC(=O)[C@H](C)[C@H](O)[C@@]1(C)O", 0.30],
  ["CC[C@H]1OC(=O)[C@H](C)C(=O)[C@H](C)[C@@H](O[C@@H]2O[C@H](C)C[C@H](N(C)C)[C@H]2O)[C@](C)(OC[C@H](O)CN2CCN(c3ccc4c(c3F)c(=O)c(C(=O)O)cn4C3CC3)CC2)C[C@@H](C)NC(=O)[C@H](C)[C@H](O)[C@@]1(C)O", -0.30]
]}

Batch: log10 of MIC for all items listed.
1. C=CCO[C@@]1(C)[C@@H](CC)OC(=O)[C@H](C)C(=O)[C@H](C)[C@@H](O[C@@H]2O[C@H](C)C[C@H](N(C)C)[C@H]2O)[C@](C)(OCC=C)C[C@@H](C)C(=O)N[C@H](C)[C@@H]1O
2. CC[C@H]1OC(=O)[C@H](C)C(=O)[C@H](C)[C@@H](O[C@@H]2O[C@H](C)C[C@H](N(C)C)[C@H]2O)[C@](C)(OC)C[C@@H](C)C(=O)[C@H](C)[C@H]2N(CCCCn3cnc(-c4cccnc4)c3)C(=O)O[C@]12C [TELITHROMYCIN]

1: 0.90; 2: -0.60
